Tested on: ERK phosphorylation in KYSE-520 cells
Assay: Phospho-ERK cellular assay (Advanced phospho-ERK1/2 (Thr202/Tyr204) TR-FRET kit)
Format: cell-based
Details: Homo sapiens, KYSE-520, 2 h, KYSE-520 cells, 2 h at 37° C., TR-FRET; read-out: pERK IC50
Description: Phospho-ERK Cellular Assay ERK phosphorylation was detected using the “Advanced phospho-ERK1/2 (Thr202/Tyr204)” TR-FRET kit (Cisbio, Cat #64AERPEG/H), following the manufacturer reagents and instructions. […] After an overnight incubation, cells were treated with DMSO serial diluted compounds and incubated for 2 h at 37° C. […] After an overnight incubation, the TR-FRET signal was detected on a suitable reader (Envision, PerkinElmer). […]
pIC50: −log10 of the molar value.
Reported Property: pIC50

INSERT INTO measurements (structure_smiles, reported_property, reported) VALUES
  ('N[C@@H]1c2cc(F)ccc2CC12CCN(c1nc3nc(Sc4cccn5ccnc45)cnc3[nH]1)CC2', 'pIC50', '5.30 to 6.00'),
  ('COC1CN(c2nccc(Sc3cnc4nc(N5CCC6(CC5)Cc5ccccc5[C@H]6N)[nH]c4n3)c2Cl)C1', 'pIC50', '< 5.30'),
  ('COc1nnccc1Sc1cnc2[nH]c(N3CCC4(CC3)Cc3ccccc3[C@H]4N)nc2n1', 'pIC50', '< 5.30'),
  ('Nc1nccc(Sc2cnc3[nH]c(N4CCC5(CC4)Cc4ccc(N6CCOCC6)cc4[C@H]5N)nc3n2)c1Cl', 'pIC50', '< 5.30'),
  ('N[C@@H]1c2ccccc2CC12CCN(c1nc3nc(Sc4cccc5c4OC(F)(F)O5)cnc3[nH]1)CC2', 'pIC50', '> 6.00'),
  ('COc1nccc(Sc2cnc3[nH]c(N4CCC5(CC4)Cc4ccccc4[C@H]5N)nc3n2)c1Cl', 'pIC50', '5.30 to 6.00'),
  ('COc1ccc2nccc(Sc3cnc4[nH]c(N5CCC6(CC5)Cc5ccccc5[C@H]6N)nc4n3)c2n1', 'pIC50', '5.30 to 6.00');
